tested on: Escherichia coli TOP10; test: shrunken log2 fold change of peptide-encoding DNA abundance (4.5 h post-induction vs induction); higher = less antimicrobial activity (less host growth inhibition); conditions: time post-induction: 4.5 h; library: site-saturation at positions 5, 18, 19, 20
# binarize shrunken log2 fold change: threshold -0.02 inclusive, high side rule met, low side rule not met

RRIRARPPRLPRPRPRPQCEPRP | rule met
RRIRRRPPRLPRPRPRPAWVPRP | rule met
RRIRRRPPRLPRPRPRPRTGPRP | rule met
RRIRKRPPRLPRPRPRPMLPPRP | rule met
RRIRQRPPRLPRPRPRPFLNPRP | rule not met

## Input Test whether the sequence RRIRERPPRLPRPRPRPCVRPRP records shrunken log2 fold change of -0.02 or higher.
## Output rule not met

## Input Could you do the same for RRIRNRPPRLPRPRPRPMCMPRP , please?
## Output rule not met

###

system: Escherichia coli TOP10; assay: shrunken log2 fold change of peptide-encoding DNA abundance (4.5 h post-induction vs induction); higher = less antimicrobial activity (less host growth inhibition); conditions: time post-induction: 4.5 h; library: site-saturation at positions 5, 18, 19, 20;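 also: peptides expressed intracellularly from a pBAD plasmid library in pooled LB shake-flask culture, induced with 0.3% L-arabinose, DNA abundance read by NGS, three biological replicates, DESeq2 with apeglm shrinkage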
# binarize shrunken log2 fold change: threshold -0.04 inclusive, high side 1 (yes), low side 0 (no)

Worked examples, 10 sequences total:
RRIRGRPPRLPRPRPRPPAIPRP | 1 (yes)
RRIRHRPPRLPRPRPRPQLDPRP | 1 (yes)
RRIRARPPRLPRPRPRPKHPPRP | 1 (yes)
RRIRWRPPRLPRPRPRPHSEPRP | 0 (no)
RRIRERPPRLPRPRPRPMDTPRP | 0 (no)
RRIRGRPPRLPRPRPRPKPRPRP | 1 (yes)
RRIRMRPPRLPRPRPRPGFDPRP | 1 (yes)
RRIRERPPRLPRPRPRPAEDPRP | 1 (yes)
RRIRCRPPRLPRPRPRPGGTPRP | 1 (yes)
RRIRTRPPRLPRPRPRPKDVPRP | 1 (yes)

## Input Test whether the sequence RRIRGRPPRLPRPRPRPIMGPRP records shrunken log2 fold change of -0.04 or higher.
## Output 1 (yes)

## Input Could you do the same for RRIRYRPPRLPRPRPRPGAYPRP , please?
## Output 0 (no)

## Input Could you do the same for RRIRDRPPRLPRPRPRPWFNPRP , please?
## Output 0 (no)

## Input Could you do the same for RRIRMRPPRLPRPRPRPKHPPRP , please?
## Output 1 (yes)

## Input Could you do the same for RRIRWRPPRLPRPRPRPWQMPRP , please?
## Output 1 (yes)

## Input Could you do the same for RRIRTRPPRLPRPRPRPPMLPRP , please?
## Output 1 (yes)

## Input Could you do the same for RRIRERPPRLPRPRPRPRLYPRP , please?
## Output 0 (no)

## Input Could you do the same for RRIRIRPPRLPRPRPRPVHSPRP , please?
## Output 1 (yes)

## Input Could you do the same for RRIRPRPPRLPRPRPRPTKWPRP , please?
## Output 1 (yes)

## Input Could you do the same for RRIRNRPPRLPRPRPRPHFRPRP , please?
## Output 1 (yes)

## Input Could you do the same for RRIRRRPPRLPRPRPRPKEFPRP , please?
## Output 1 (yes)

## Input Could you do the same for RRIRRRPPRLPRPRPRPEAMPRP , please?
## Output 0 (no)

## Input Could you do the same for RRIRLRPPRLPRPRPRPSSNPRP , please?
## Output 0 (no)

## Input Could you do the same for RRIRIRPPRLPRPRPRPLWQPRP , please?
## Output 1 (yes)

## Input Could you do the same for RRIRKRPPRLPRPRPRPATCPRP , please?
## Output 1 (yes)

## Input Could you do the same for RRIRFRPPRLPRPRPRPQACPRP , please?
## Output 0 (no)

## Input Could you do the same for RRIRWRPPRLPRPRPRPCNTPRP , please?
## Output 0 (no)

## Input Could you do the same for RRIRMRPPRLPRPRPRPLPEPRP , please?
## Output 1 (yes)

## Input Could you do the same for RRIRNRPPRLPRPRPRPEVDPRP , please?
## Output 1 (yes)

## Input Could you do the same for RRIRDRPPRLPRPRPRPNRTPRP , please?
## Output 0 (no)

## Input Could you do the same for RRIRHRPPRLPRPRPRPHYRPRP , please?
## Output 1 (yes)
